# measurement.description: NOD1 signaling inhibitors, primary screen, cell-based, luminescence, uHTS (AID 1578);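 note: HEK-293T reporter cells stimulated with the NOD1 agonist gamma-tri-DAP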
# applied.conditions: NOD1-driven NF-kB luciferase reporter cells, at 4 µM, hits give high values
About 3,000 (1%) of roughly 290,000 compounds were called active. The entries come from a sample that favours actives as a whole.
Recorded inhibition for the following compounds
// note: answer is a bare numeric in %

Here are 2 compounds together with their reported answers.
[
  {
    "compound": "CC1(C)Cc2c(sc3c2c(=N)n(Cc2ccco2)c(=O)n3CC(=O)Nc2ccc(Cl)cc2)CO1",
    "inhibition / %": 1
  },
  {
    "compound": "COc1ccc(NC(=S)Nc2ccccn2)cc1",
    "inhibition / %": 6.6
  }
]

Answer with the recorded inhibition for the compound listed here: Cc1ccc(Nc2nc(-c3sc(C)nc3C)cs2)cc1
-5

Answer with the recorded inhibition for the compound listed here: O=C(c1noc2c1CCc1ccccc1-2)N1CCc2ccccc2C1
-25

Answer with the recorded inhibition for the compound listed here: O=C(Nc1ccccc1)Nc1ncc([N+](=O)[O-])s1
-0.5

* * *

Recorded inhibition for the following compounds
# measurement.description: NOD1 signaling inhibitors, primary screen, cell-based, luminescence, uHTS (AID 1578);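 note: HEK-293T reporter cells stimulated with the NOD1 agonist gamma-tri-DAP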
# applied.conditions: NOD1-driven NF-kB luciferase reporter cells, at 4 µM, hits give high values
The whole screen tested about 290,000 compounds, of which about 3,000 (1%) were called active. The sample holds actives, similar compounds and a random draw of the others, so the mix is not that of the screen.
// note: answer is a bare numeric in %

Here are 3 compounds together with their reported answers.
[
  {
    "compound": "C#CCOC(=O)c1cc(Cl)c(=O)n(Cc2ccc(Cl)cc2Cl)c1",
    "inhibition (%)": 12.3
  },
  {
    "compound": "COC(=O)Nc1nc(-c2ccc(F)cc2)c(C)s1",
    "inhibition (%)": -56.3
  },
  {
    "compound": "COc1cccc(-c2nn3c(-c4cccc(C)c4)nnc3s2)c1",
    "inhibition (%)": -87.2
  }
]

Answer with the recorded inhibition for the compound listed here: COc1ccc(N(CC(=O)NCc2ccccc2)S(=O)(=O)c2c(C)nn(C)c2C)cc1
-15.5

Answer with the recorded inhibition for the compound listed here: Cc1cc(NS(=O)(=O)c2ccc(NC(=S)NC(=O)c3ccncc3)cc2)no1
-4.1

Answer with the recorded inhibition for the compound listed here: C=C(C(=O)O)C1CCC2(C)CCCC(C)(O)C2C1 (stereo unspecified)
-0.6

Answer with the recorded inhibition for the compound listed here: Cc1cc(N2CCN(C)CC2)nc2ccc(NC(=O)CCC(=O)NCCC(C)C)cc12
-10.6

* * *

# measurement.description: NOD1 signaling inhibitors, primary screen, cell-based, luminescence, uHTS (AID 1578);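 note: HEK-293T reporter cells stimulated with the NOD1 agonist gamma-tri-DAP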
# applied.conditions: NOD1-driven NF-kB luciferase reporter cells, at 4 µM
Hit rate of the full screen: of about 290,000 compounds, about 3,000 (1%) were called active. Cut-off read from the data, not from the text of the source: active = inhibition mostly above about 36% (no sharp cut-off); inactive = mostly below about 34%. For the sample, actives were picked, then their nearest neighbours and some compounds at random.
Answer with one of the outcomes given here: active, inactive

Please review the entries below; each comes with its answer.
[
  {
    "compound": "COc1ccc(C)cc1-n1nc2ccccc2n1",
    "label.value": "inactive"
  },
  {
    "compound": "CCCNC(=S)NC1CC2CCC(C1)N2Cc1ccccc1 (configuration not stated)",
    "label.value": "inactive"
  },
  {
    "compound": "Cc1sc2ncnc(N3CCC(C(=O)NNC(=O)c4ccccc4Cl)CC3)c2c1C",
    "label.value": "inactive"
  },
  {
    "compound": "COc1ccc(CCNC(=O)CCS(=O)(=O)c2ccc3c(c2)oc(=O)n3C)cc1OC",
    "label.value": "inactive"
  },
  {
    "compound": "O=C(Nc1cccc([N+](=O)[O-])c1)Nc1cccc([N+](=O)[O-])c1",
    "label.value": "inactive"
  },
  {
    "compound": "C=C1C(=O)O[C@H]2[C@H]1[C@@H](O)CC(=C)[C@@H]1CC(=O)[C@@H](C)[C@H]21",
    "label.value": "inactive"
  }
]

Each compound tested received a call. Report the one for CCOC(=O)Cc1cnc(NC(=O)Cn2nnc(-c3ccc(OCC)cc3)n2)s1 .
inactive

Each compound tested received a call. Report the one for O=C(Nc1ccc(C(=O)N2CCOCC2)cc1)Nc1cccc(C(F)(F)F)c1 .
active

Each compound tested received a call. Report the one for O=C1/C(=C\c2cccc(O)c2O)SC(=S)N1Cc1ccccc1 .
inactive

Data provenance: PubChem BioAssay AID1578
